Assay: Homolysis kinetics of alkoxyamines by EPR (growth of nitroxide)
Format: physicochemical
Conditions: in water/n-PrOH v/v 1:1; by Equation (2) from kd and T, A = 2.4 10^14 s^−1; mixture of diastereoisomers
Protocol: Preparation of alkoxyamines and reference samples. All reagents including anhydrous solvents used for the chemical synthesis were purchased from commercially available sources such as Merck, TCI, and Fluorochem, and were used without further purification. […] Homolysis constants were measured by EPR on an EMX Bruker spectrometer from 10^−4 M samples in tertbutyl benzene or in a mixture of H2O-nPrOH (1:1; v:v). […]
Recorded Activation energy Ea, one value per entry.
metric: Activation energy Ea

# compound, experimental-value
data = [
    ("CC(ON1C(C)(C)CCCC1(C)C)c1ccc(NC(=O)[C@@H](Cc2ccccc2)NC(=O)[C@H](NC(=O)[C@@H](Cc2ccccc2)NC(=O)OC(C)(C)C)C(C)C)cc1 (stereo partly drawn) [A3D]", "31.31 kcal/mol"),
    ("CC(ON1C(C)(C)CCCC1(C)C)c1ccc(NC(=O)[C@H](Cc2ccccc2)NC(=O)[C@@H](NC(=O)[C@H](Cc2ccccc2)NC(=O)OC(C)(C)C)C(C)C)cc1 (stereo partly drawn) [A3L]", "30.78 kcal/mol"),
    ("CC(ON1C(C)(C)CCCC1(C)C)c1ccc(NC(=O)[C@@H](Cc2ccccc2)NC(=O)[C@H](NC(=O)[C@H](N)Cc2ccccc2)C(C)C)cc1 (stereo partly drawn) [A5D]", "30.71 kcal/mol"),
]

Measured values drawn from paper PMC11206678 for this set.
